For each entry below, report its IC50 value.
tested on: KRAS PDC tumor spheroids (HUVEC+MSC), viability; assay: Anticancer human tumor 254851-301-R-J1-PDC patient-derived colon carcinoma cell line growth inhibition [KRAS2]; conditions: curve of first compound; second compound 0.1 µM

Give IC50 for CC1(C)CCC(CN2CCN(c3ccc(C(=O)NS(=O)(=O)c4ccc(NCC5CCOCC5)c([N+](=O)[O-])c4)c(Oc4cnc5[nH]ccc5c4)c3)CC2)=C(c2ccc(Cl)cc2)C1 + CC1OCC2(CCN(c3cnc(Sc4ccnc(N)c4Cl)c(N)n3)CC2)C1N > 10 µM

Give IC50 for CC1OCC2(CCN(c3cnc(Sc4ccnc(N)c4Cl)c(N)n3)CC2)C1N (stereo not given) + COc1cc2nc(C)nc(NC(C)c3cc(N)cc(C(F)(F)F)c3)c2cc1OC1CCOC1 > 10 µM

Give IC50 for Cn1ncnc1[C@H]1c2n[nH]c(=O)c3cc(F)cc(c23)N[C@@H]1c1ccc(F)cc1 + CNCc1ccccc1-c1csc(C(C)Nc2nc(C)nc3cc(OC)c(OC)cc23)c1 > 0.1 µM

Give IC50 for CC(C)NCC(C(=O)N1CCN(c2ncnc3c2C(C)CC3O)CC1)c1ccc(Cl)cc1 (stereo not given) + C=CC(=O)N1CCN(c2nc(OCC3CCCN3C)nc3c2CCN(c2cccc4cccc(C)c24)C3)CC1CC#N > 10 µM

Give IC50 for COC(=O)c1ccc2c(C(=Nc3ccc(N(C)C(=O)CN4CCN(C)CC4)cc3)c3ccccc3)c(O)[nH]c2c1 + CNCc1ccccc1-c1csc(C(C)Nc2nc(C)nc3cc(OC)c(OC)cc23)c1 > 10 µM

###

System: KRAS PDC tumor spheroids (HUVEC+MSC), viability
Test: Anticancer human tumor 254851-301-R-J1-PDC cell line growth inhibition [KRAS2];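 note: spheroids exposed to compounds for seven days before readout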
Conditions: curve of first compound; second compound 0.1 µM
Source text: Multicellular complex tumor spheroid response to RAS pathway inhibitors in combination with a targeted agents in patient-derived cell lines with oncogenic KRAS variants from multiple cancer types A high-throughput screen of multi-cell type tumor spheroids was designed to identify active combinations of targeted small molecules and KRAS pathway inhibitors. […] Compounds. […] If the clinical Cmax for an agent had not been determined, the highest concentration tested was 10 microM. […]
readout-kind: IC50

Give IC50 for CC1(C)CCC(CN2CCN(c3ccc(C(=O)NS(=O)(=O)c4ccc(NCC5CCOCC5)c([N+](=O)[O-])c4)c(Oc4cnc5[nH]ccc5c4)c3)CC2)=C(c2ccc(Cl)cc2)C1 + C=CC(=O)N1CCN(c2nc(=O)n(-c3c(C)ccnc3C(C)C)c3nc(-c4c(O)cccc4F)c(F)cc23)C(C)C1 > 10 µM

Give IC50 for CC1OCC2(CCN(c3cnc(Sc4ccnc(N)c4Cl)c(N)n3)CC2)C1N (stereo not given) + C=CC(=O)N1CCN(c2nc(OCC3CCCN3C)nc3c2CCN(c2cccc4cccc(C)c24)C3)CC1CC#N > 10 µM

Give IC50 for Cn1ncnc1[C@H]1c2n[nH]c(=O)c3cc(F)cc(c23)N[C@@H]1c1ccc(F)cc1 + CC1OCC2(CCN(c3cnc(Sc4ccnc(N)c4Cl)c(N)n3)CC2)C1N > 0.1 µM

Give IC50 for CN(C)C/C=C/C(=O)Nc1cc2c(Nc3ccc(F)c(Cl)c3)ncnc2cc1O[C@H]1CCOC1 + COc1cc2nc(C)nc(NC(C)c3cc(N)cc(C(F)(F)F)c3)c2cc1OC1CCOC1 > 0.1 µM

Give IC50 for COc1cc2nccc(Oc3ccc(NC(=O)C4(C(=O)Nc5ccc(F)cc5)CC4)cc3)c2cc1OC + COc1cc2nc(C)nc(NC(C)c3cc(N)cc(C(F)(F)F)c3)c2cc1OC1CCOC1 > 10 µM
